Target system: SGK1 (Homo sapiens)
Sequence (O00141 1-431): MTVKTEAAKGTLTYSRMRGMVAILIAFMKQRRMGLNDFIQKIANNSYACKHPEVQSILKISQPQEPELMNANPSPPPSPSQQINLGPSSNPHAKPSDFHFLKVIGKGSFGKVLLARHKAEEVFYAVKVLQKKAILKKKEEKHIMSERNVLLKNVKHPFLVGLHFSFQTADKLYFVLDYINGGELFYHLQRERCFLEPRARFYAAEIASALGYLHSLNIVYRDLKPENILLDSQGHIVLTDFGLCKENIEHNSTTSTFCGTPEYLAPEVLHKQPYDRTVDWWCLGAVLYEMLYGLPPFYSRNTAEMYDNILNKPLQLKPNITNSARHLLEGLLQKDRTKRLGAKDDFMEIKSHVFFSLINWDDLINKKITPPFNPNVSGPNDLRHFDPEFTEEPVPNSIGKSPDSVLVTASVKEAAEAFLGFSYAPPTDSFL
Protocol notes: Kinase profiling SGK1
Type: biochemical
Measurement setup: 100 micromolar inhibitor concentration; 100 is no change; read-out: residual kinase activity, SGK1
Outcome measure: remaining activity at 100 µM (%)
Number only, in %; omit the unit.

Below, each entry is followed by its recorded remaining activity at 100 µM result.
# remaining activity at 100 µM lookup, item CC(=O)Nc1nc2cc(F)ccc2s1 [Compound 03-77]
66

# remaining activity at 100 µM lookup, item COc1ccc2sc(NC(C)=O)nc2c1 [Compound 03-21]
82

# remaining activity at 100 µM lookup, item CC(=O)Nc1nc2ccc(C#N)cc2s1 [Compound 01-94]
40

# remaining activity at 100 µM lookup, item CC(=O)Nc1nc2ccc([N+](=O)[O-])cc2s1 [Compound 13-10]
58

# remaining activity at 100 µM lookup, item CC(=O)Nc1nc2ccc(O)cc2s1 [Compound 01-71]
33

---
# remaining activity at 100 µM lookup, item CC(=O)Nc1nc2ccc(C(F)(F)F)cc2s1 [Compound 01-90]
69

# remaining activity at 100 µM lookup, item CC(=O)Nc1nc2cc(C(F)(F)F)ccc2s1 [Compound 03-73]
77

* * *

Target system: PKBb (Homo sapiens)
Sequence (P31751 whole entry): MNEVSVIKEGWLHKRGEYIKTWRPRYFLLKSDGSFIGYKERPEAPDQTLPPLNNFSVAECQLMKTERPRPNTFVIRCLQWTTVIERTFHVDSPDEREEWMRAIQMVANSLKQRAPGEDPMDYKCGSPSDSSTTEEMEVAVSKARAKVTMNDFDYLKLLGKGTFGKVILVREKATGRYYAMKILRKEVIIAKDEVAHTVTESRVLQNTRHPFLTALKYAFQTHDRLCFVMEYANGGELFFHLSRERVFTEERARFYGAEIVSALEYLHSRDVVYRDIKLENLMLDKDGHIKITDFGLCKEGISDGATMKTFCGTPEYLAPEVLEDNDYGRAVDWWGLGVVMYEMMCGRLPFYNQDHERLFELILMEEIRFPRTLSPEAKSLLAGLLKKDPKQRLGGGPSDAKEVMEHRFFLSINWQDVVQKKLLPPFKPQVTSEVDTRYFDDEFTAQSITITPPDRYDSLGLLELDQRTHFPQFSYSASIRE
Protocol notes: Kinase profiling PKBb
Format: biochemical
Measurement setup: read-out: residual kinase activity, PKBb
Listed here: items and their measured remaining activity at 100 µM.
Number only, in %; omit the unit.

# remaining activity at 100 µM lookup, item CC(=O)Nc1nc2cc(O)ccc2s1 [Compound 01-66]
55

* * *

Target system: UniProtKB Q14164
Sequence (Q14164 whole entry, species assumed): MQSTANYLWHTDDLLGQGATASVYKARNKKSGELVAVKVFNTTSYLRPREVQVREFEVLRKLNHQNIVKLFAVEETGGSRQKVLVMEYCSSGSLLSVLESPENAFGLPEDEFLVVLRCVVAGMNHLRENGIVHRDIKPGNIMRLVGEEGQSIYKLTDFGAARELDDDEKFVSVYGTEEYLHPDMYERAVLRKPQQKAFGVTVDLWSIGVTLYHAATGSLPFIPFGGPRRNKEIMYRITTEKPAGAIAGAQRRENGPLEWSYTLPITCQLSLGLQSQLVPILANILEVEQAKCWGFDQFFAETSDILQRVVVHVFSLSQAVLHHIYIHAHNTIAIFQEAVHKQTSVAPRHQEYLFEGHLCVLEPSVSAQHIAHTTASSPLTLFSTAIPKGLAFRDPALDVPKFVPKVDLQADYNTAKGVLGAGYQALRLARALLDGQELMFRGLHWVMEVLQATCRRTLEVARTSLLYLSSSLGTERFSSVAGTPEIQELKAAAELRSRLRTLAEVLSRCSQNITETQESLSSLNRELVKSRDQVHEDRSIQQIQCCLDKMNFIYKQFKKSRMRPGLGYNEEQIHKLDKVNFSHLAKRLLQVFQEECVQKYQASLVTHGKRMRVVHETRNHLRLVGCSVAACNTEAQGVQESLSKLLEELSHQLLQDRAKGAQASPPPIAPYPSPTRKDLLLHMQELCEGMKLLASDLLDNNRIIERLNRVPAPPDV
Protocol notes: Kinase profiling IKKe
Format: biochemical
Measurement setup: 100 micromolar inhibitor concentration; 100 is no change; read-out: residual kinase activity, IKKe
Text: Any value less that 25 is considered to be highly significant inhibition.
Kindly apply the following: class 1 if remaining activity at 100 µM is less than 80%, class 0 in every other case.

Bench note: check whether "CC(=O)Nc1nc2ccc(C#N)cc2s1" shows remaining activity at 100 µM below 80%
class 1

Bench note: check whether "CC(=O)Nc1nc2ccc(O)cc2s1" shows remaining activity at 100 µM below 80%
class 1

Bench note: check whether "CC(=O)Nc1nc2cc(F)ccc2s1" shows remaining activity at 100 µM below 80%
class 0

Bench note: check whether "CC(=O)Nc1nc2cc(C(F)(F)F)ccc2s1" shows remaining activity at 100 µM below 80%
class 0

---
Bench note: check whether "COc1ccc2sc(NC(C)=O)nc2c1" shows remaining activity at 100 µM below 80%
class 0

* * *

Target system: CDK2-Cyclin A (Homo sapiens)
Protocol notes: Kinase profiling CDK2-Cyclin A
Assay type: biochemical
Measurement setup: 100 micromolar inhibitor concentration; 100 is no change; read-out: residual kinase activity, CDK2-Cyclin A
Kindly apply the following: Yes if remaining activity at 100 µM is less than 30%, No in every other case.

Some solved cases for reference:
Bench note: check whether COc1ccc2sc(NC(C)=O)nc2c1 [Compound 03-21] shows remaining activity at 100 µM below 30%
No

Bench note: check whether CC(=O)Nc1nc2ccc(C#N)cc2s1 [Compound 01-94] shows remaining activity at 100 µM below 30%
Yes

Bench note: check whether CC(=O)Nc1nc2ccc(C(F)(F)F)cc2s1 [Compound 01-90] shows remaining activity at 100 µM below 30%
Yes

Bench note: check whether CC(=O)Nc1nc2cc(F)ccc2s1 [Compound 03-77] shows remaining activity at 100 µM below 30%
No

---
Bench note: check whether CC(=O)Nc1nc2cc(C(F)(F)F)ccc2s1 [Compound 03-73] shows remaining activity at 100 µM below 30%
No

* * *

Target system: IR (Homo sapiens, UniProt P06213)
Sequence (P06213 28-1382): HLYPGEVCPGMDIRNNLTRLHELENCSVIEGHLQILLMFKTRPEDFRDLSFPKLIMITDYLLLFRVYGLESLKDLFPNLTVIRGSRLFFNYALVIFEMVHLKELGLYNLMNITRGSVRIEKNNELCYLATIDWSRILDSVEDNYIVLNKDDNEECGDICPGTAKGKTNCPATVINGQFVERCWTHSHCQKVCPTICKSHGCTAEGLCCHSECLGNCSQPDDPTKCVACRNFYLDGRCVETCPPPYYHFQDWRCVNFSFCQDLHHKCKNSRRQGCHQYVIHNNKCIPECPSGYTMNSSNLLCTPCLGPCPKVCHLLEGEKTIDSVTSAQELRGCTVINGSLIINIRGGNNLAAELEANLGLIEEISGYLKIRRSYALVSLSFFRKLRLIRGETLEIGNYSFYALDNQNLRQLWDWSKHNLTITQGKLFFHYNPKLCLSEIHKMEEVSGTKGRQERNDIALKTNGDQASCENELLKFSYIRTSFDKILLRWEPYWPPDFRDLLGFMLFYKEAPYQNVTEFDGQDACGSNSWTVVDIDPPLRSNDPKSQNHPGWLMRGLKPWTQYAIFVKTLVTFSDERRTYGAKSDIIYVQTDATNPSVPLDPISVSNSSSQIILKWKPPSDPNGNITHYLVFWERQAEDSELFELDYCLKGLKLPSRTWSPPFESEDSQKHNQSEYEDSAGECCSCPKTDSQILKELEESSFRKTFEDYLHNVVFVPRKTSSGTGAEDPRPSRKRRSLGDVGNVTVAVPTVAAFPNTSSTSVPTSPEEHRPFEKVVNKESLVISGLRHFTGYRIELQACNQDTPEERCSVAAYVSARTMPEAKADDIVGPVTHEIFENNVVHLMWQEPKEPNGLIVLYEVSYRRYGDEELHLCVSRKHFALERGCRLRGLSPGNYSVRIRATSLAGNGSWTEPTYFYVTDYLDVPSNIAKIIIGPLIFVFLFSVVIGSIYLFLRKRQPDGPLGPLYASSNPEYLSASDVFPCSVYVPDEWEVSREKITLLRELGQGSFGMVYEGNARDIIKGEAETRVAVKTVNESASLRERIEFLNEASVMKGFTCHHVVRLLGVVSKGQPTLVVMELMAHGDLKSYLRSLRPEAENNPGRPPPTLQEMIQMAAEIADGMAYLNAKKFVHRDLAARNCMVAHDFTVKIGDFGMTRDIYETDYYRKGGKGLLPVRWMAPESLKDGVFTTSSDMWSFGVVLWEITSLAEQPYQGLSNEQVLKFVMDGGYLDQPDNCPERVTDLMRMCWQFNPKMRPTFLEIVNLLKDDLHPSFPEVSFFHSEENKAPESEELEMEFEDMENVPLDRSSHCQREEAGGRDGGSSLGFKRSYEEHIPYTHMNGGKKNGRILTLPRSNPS
Protocol notes: Kinase profiling IR
Assay type: biochemical
Measurement setup: 100 micromolar inhibitor concentration; 100 is no change
Listed here: items and their measured residual kinase activity, IR.

Below, each entry is followed by its recorded residual kinase activity, IR result.
# residual kinase activity, IR lookup, item O=C(Nc1nc2cc(O)ccc2s1)c1ccccn1 [Compound 03-13]
74

# residual kinase activity, IR lookup, item CC(=O)Nc1nc2ccccc2s1 [Compound 03-32]
87

# residual kinase activity, IR lookup, item O=C(Nc1nc2cc(O)ccc2s1)c1ccncc1 [Compound 03-11]
106

# residual kinase activity, IR lookup, item O=C(Nc1nc2ccc(O)cc2s1)c1ccccc1 [Compound 03-60]
31

# residual kinase activity, IR lookup, item O=C(Nc1nc2ccc(O)cc2s1)c1cccnc1 [Compound 08-44]
35

Then this compound:
# residual kinase activity, IR lookup, item O=C(Nc1nc2ccc(O)cc2s1)c1ccncc1 [Compound 08-42]
51

* * *

Listed here: items and their measured residual kinase activity, MARK1.
Target system: MARK1 (Homo sapiens, UniProt Q9P0L2)
Sequence (Q9P0L2 whole entry, species assumed): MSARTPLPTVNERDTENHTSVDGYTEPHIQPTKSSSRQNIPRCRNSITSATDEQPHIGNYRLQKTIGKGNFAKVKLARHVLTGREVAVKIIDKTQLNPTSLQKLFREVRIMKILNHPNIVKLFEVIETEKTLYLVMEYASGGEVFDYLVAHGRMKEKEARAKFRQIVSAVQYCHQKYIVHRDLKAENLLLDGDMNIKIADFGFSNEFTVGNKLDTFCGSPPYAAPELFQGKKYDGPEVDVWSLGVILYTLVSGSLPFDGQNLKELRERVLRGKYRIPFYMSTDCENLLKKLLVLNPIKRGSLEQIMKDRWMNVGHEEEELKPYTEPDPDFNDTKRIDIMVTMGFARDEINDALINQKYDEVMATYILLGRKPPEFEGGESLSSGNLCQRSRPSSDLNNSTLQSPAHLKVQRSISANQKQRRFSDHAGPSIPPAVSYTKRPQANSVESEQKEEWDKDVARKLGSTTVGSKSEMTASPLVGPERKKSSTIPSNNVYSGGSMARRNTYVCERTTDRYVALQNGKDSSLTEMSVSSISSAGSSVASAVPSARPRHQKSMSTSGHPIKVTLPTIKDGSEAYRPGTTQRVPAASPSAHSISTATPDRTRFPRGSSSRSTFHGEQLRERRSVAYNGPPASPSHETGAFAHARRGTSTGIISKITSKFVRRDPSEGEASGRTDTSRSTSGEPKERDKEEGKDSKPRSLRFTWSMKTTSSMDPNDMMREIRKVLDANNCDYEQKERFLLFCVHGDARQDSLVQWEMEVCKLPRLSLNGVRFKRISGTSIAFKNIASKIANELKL
Protocol notes: Kinase profiling MARK1
Format: biochemical
Measurement setup: 100 micromolar inhibitor concentration; 100 is no change
In your answer, state the number alone without any accompanying words.

Below, each entry is followed by its recorded residual kinase activity, MARK1 result.
# residual kinase activity, MARK1 lookup, item "O=C(Nc1nc2ccc(O)cc2s1)c1cccnc1"
83

# residual kinase activity, MARK1 lookup, item "O=C(Nc1nc2cc(O)ccc2s1)c1ccccn1"
99

# residual kinase activity, MARK1 lookup, item "O=C(Nc1nc2cc(O)ccc2s1)c1cccnc1"
103

---
# residual kinase activity, MARK1 lookup, item "CC(=O)Nc1nc2cc(C)ccc2s1"
94

# residual kinase activity, MARK1 lookup, item "O=C(Nc1nc2cc(O)ccc2s1)c1ccncc1"
90

# residual kinase activity, MARK1 lookup, item "O=C(Nc1nc2ccc(O)cc2s1)c1ccccc1"
96

# residual kinase activity, MARK1 lookup, item "O=C(Nc1nc2ccc(O)cc2s1)c1ccncc1"
75

# residual kinase activity, MARK1 lookup, item "O=C(Nc1nc2ccc(O)cc2s1)c1ccccn1"
89

# residual kinase activity, MARK1 lookup, item "CC(=O)Nc1nc2ccccc2s1"
77

* * *

Listed here: items and their measured residual kinase activity, MLK1.
Target system: MLK1 (Homo sapiens, UniProt P80192)
Sequence (P80192 whole entry, species assumed): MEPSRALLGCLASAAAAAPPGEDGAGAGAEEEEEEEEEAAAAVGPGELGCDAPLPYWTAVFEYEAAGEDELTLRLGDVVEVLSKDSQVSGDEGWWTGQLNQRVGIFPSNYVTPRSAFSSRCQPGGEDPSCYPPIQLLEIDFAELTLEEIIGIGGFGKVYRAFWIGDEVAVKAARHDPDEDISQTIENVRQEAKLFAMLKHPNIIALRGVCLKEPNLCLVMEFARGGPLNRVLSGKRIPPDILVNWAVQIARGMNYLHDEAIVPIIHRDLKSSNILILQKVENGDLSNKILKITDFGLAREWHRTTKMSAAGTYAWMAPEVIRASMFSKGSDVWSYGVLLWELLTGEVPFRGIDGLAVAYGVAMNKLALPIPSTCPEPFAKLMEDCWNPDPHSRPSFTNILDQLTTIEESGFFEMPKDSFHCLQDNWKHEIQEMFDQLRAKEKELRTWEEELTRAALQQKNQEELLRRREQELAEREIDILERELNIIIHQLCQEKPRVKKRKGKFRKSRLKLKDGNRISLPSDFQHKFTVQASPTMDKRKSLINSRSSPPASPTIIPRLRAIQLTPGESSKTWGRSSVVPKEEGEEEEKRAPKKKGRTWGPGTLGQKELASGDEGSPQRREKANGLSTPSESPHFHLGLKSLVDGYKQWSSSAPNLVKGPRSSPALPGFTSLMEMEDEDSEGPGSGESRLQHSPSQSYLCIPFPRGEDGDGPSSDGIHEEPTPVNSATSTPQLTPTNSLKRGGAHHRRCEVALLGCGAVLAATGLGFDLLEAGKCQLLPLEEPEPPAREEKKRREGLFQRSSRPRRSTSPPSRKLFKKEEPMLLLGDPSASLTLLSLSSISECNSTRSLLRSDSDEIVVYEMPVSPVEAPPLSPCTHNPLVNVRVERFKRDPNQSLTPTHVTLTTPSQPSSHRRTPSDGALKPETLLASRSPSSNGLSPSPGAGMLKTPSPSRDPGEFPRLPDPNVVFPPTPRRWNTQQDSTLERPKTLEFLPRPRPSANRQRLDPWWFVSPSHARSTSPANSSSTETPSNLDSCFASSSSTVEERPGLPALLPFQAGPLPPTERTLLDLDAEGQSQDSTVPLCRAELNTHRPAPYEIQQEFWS
Protocol notes: Kinase profiling MLK1
Format: biochemical
Measurement setup: 100 micromolar inhibitor concentration; 100 is no change
Source text: Any value less that 25 is considered to be highly significant inhibition.
In your answer, state the number alone without any accompanying words.

Below, each entry is followed by its recorded residual kinase activity, MLK1 result.
# residual kinase activity, MLK1 lookup, item O=C(Nc1nc2ccc(O)cc2s1)c1cccnc1 [Compound 08-44]
13

# residual kinase activity, MLK1 lookup, item O=C(Nc1nc2ccc(O)cc2s1)c1ccccc1 [Compound 03-60]
5

Then this compound:
# residual kinase activity, MLK1 lookup, item O=C(Nc1nc2ccc(O)cc2s1)c1ccncc1 [Compound 08-42]
33

* * *

Listed here: items and their measured remaining activity at 100 µM.
Target system: UniProt O14965
Sequence (O14965 1-403): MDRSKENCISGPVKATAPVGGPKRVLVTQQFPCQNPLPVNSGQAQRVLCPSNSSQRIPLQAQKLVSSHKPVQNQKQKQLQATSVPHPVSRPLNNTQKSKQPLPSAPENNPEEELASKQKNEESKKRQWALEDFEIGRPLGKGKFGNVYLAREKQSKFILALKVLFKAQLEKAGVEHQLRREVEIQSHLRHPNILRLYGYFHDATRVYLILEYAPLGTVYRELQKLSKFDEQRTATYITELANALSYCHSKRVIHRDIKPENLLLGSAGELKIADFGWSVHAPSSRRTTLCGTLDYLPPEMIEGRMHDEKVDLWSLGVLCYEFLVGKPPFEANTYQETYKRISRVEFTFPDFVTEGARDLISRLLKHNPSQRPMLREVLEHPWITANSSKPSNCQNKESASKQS
Protocol notes: Kinase profiling Aurora A
Type: biochemical
Measurement setup: 100 micromolar inhibitor concentration; 100 is no change; read-out: residual kinase activity, Aurora A
Number only, in %; omit the unit.

Below, each entry is followed by its recorded remaining activity at 100 µM result.
# remaining activity at 100 µM lookup, item CC(=O)Nc1nc2ccc(C#N)cc2s1 [Compound 01-94]
61

# remaining activity at 100 µM lookup, item COc1ccc2sc(NC(C)=O)nc2c1 [Compound 03-21]
103

# remaining activity at 100 µM lookup, item CC(=O)Nc1nc2ccc(C(F)(F)F)cc2s1 [Compound 01-90]
81

# remaining activity at 100 µM lookup, item CC(=O)Nc1nc2cc(C(F)(F)F)ccc2s1 [Compound 03-73]
96

# remaining activity at 100 µM lookup, item CC(=O)Nc1nc2ccc(O)cc2s1 [Compound 01-71]
68

Then this compound:
# remaining activity at 100 µM lookup, item CC(=O)Nc1nc2cc(F)ccc2s1 [Compound 03-77]
100

The origin of these recorded values is patent US10231954B2.
